Biological target: SMYD3 (Homo sapiens (Human))
Assay: SMYD3 cell assay (Trimethyl-MEKK2 In-Cell Western in 293T/17 cells)
Type: cell-based
Conditions: IC50 values are an average of n = 1 to n = 50; read-out: SMYD3 Cell IC50*
Procedure: Trimethyl-MEKK2-in-Cell Western Assay MEM/Glutamax medium, Optimem Reduced Serum medium, penicillin-streptomycin, 0.05% trypsin and 1×D-PBS were purchased from Life Technologies, Grand Island, N.Y., USA. […] Plasmids were prepared for delivery to cells by first mixing 1350 μL Opti-MEM with Fugene (81 μL) in a sterile Eppendorf and incubated for five minutes at room temperature (RT). […] Room temperature MEM+10% Tet system FBS was added and cells were mixed gently, and counted using the Vi-cell. […]
Measurement Kind: IC50 (nM)
Write it as a number; the unit nM goes unstated.

In the examples that follow, each entry is paired with its recorded IC50.
{"Substance Smiles": "COCCNCc1ccc(S(=O)(=O)N2[C@@H]3CC[C@H]2C[C@@H](NC(=O)c2cc(C4CC4)on2)C3)cc1", "Scale Unit": "nM", "Number": 807}
{"Substance Smiles": "CC[C@@H]1CN(S(=O)(=O)N2CC[C@H](NC(=O)c3cc(C4CC4)on3)C[C@@H]2C)CCN1", "Scale Unit": "nM", "Number": 807}
{"Substance Smiles": "CN1CC2CCC(C1)N2S(=O)(=O)N1[C@@H]2CC[C@H]1C[C@@H](NC(=O)c1cc(C3CC3)on1)C2", "Scale Unit": "nM", "Number": 742}
{"Substance Smiles": "CC[C@H]1CNCCN1S(=O)(=O)N1CC[C@H](NC(=O)c2cc(C3CC3)on2)C[C@@H]1C", "Scale Unit": "nM", "Number": 931}
{"Substance Smiles": "CCc1cc(C(=O)N[C@H]2C[C@H]3CC[C@@H](C2)N3S(=O)(=O)c2ccc(C(C)(C)N)cc2)no1", "Scale Unit": "nM", "Number": 748}

Now turn to the next compound.
Ask: Requested field: IC50. Item: `O=C(N[C@H]1C[C@H]2CC[C@@H](C1)N2S(=O)(=O)[C@@H]1CCCN(CCO)C1)c1cc(C2CC2)on1`
Result: 466

---

target: SMYD3 (Homo sapiens (Human)); test: SMYD3 biochemical assay (SPA, 3H-SAM methylation of MEKK2 protein substrate); settings: Table 2A; read-out: SMYD3 Biochem IC50
Measurement Kind: IC50 (nM)
Write it as a number; the unit nM goes unstated.

{"Substance Smiles": "C[C@H]1CN(S(=O)(=O)N2CCC(NCc3ccccc3)CC2)CC[C@H]1NC(=O)c1cc(C2CC2)on1", "Number": 21.2}
{"Substance Smiles": "C[C@H]1C[C@@H](NC(=O)c2cc(C3CC3)on2)CCN1S(=O)(=O)CC1CCN(CCN2CCOCC2)CC1", "Number": 10.7}

Now turn to the next compound.
Ask: Item `CN1C2CCC1CN(S(=O)(=O)N1[C@@H]3CC[C@H]1C[C@@H](NC(=O)c1cc(C4CC4)on1)C3)C2` with SMYD3 (Homo sapiens (Human)) - IC50?
Result: 4.8

---

The reader will find reported IC50 values listed item by item below.
target: SMYD3 (Homo sapiens (Human), UniProt Q9H7B4); assay: SMYD3 cell assay (Trimethyl-MEKK2 In-Cell Western in 293T/17 cells); assay type: cell-based; details: average of n = 1 to n = 50; read-out: SMYD3 Cell IC50
Sequence (Q9H7B4 whole entry): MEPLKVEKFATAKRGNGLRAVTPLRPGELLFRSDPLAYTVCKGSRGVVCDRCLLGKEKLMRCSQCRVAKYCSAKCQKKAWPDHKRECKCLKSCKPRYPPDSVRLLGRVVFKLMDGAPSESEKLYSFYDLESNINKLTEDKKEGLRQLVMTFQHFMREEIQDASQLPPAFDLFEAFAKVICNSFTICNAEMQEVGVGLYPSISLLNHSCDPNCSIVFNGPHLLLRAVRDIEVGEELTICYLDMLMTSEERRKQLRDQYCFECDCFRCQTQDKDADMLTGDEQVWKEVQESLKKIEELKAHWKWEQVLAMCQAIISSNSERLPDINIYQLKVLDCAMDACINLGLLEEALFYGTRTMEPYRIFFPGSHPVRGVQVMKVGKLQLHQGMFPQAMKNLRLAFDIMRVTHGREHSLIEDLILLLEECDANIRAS
Write it as a number; the unit nM goes unstated.

In the examples that follow, each entry is paired with its recorded IC50.
{"Compound": "CN(CCCS(=O)(=O)N1[C@@H]2CC[C@H]1C[C@@H](NC(=O)c1cc(C3CC3)on1)C2)CCN1CCOCC1 [compound 703]", "IC50 / nM": 804}
{"Compound": "CN(C1CCNCC1)S(=O)(=O)N1CC[C@@H](NC(=O)c2cc(C3CC3)on2)C[C@@H]1Cc1ccccc1 [compound 714]", "IC50 / nM": 3150}
{"Compound": "C[C@H]1C[C@@H](NC(=O)c2cc(C3CC3)on2)CCN1S(=O)(=O)CCCNCC1CC1 [compound 630]", "IC50 / nM": 396}
{"Compound": "C[C@H]1CN(S(=O)(=O)N(C)C2CCN(Cc3ccccc3)CC2)CC[C@H]1NC(=O)c1cc(C2CC2)on1 [compound 719]", "IC50 / nM": 1210}
{"Compound": "O=C(N[C@H]1CCN(S(=O)(=O)C2CCCNC2)[C@@H](Cc2ccccc2)C1)c1cc(C2CC2)on1 (stereo partly drawn) [compound 725]", "IC50 / nM": 3070}

Ask: Requested field: IC50. Item: C[C@@H]1CN(S(=O)(=O)N2CC[C@H](NC(=O)c3cc(C4CC4)on3)C[C@@H]2C)CCN1C [compound 669]
Result: 398

Ask: Now consider C[C@H]1CN(S(=O)(=O)CC2CCNCC2)[C@@H](C)C[C@H]1NC(=O)c1cc(C2CC2)on1 [compound 632] .
Result: 229

---

The reader will find reported log10 IC50 values listed item by item below.
molecular target: UniProt Q9H7B4; assay: SMYD3 biochemical assay (SPA, 3H-SAM methylation of MEKK2 protein substrate); settings: read-out: SMYD3 Biochem IC50 (μM)*
Scale: log10; quantity: IC50; unit before log: µM

In the examples that follow, each entry is paired with its recorded log10 IC50.
{"Compound": "C[C@H]1CC(NC(=O)c2cc(C3CC3)on2)CCN1C(=O)CCC1CCNC1 (stereo partly shown)", "log10 IC50": -0.20}
{"Compound": "C[C@H]1CC(NC(=O)c2cc(C3CC3)on2)CCN1C(=O)[C@H]1CCC[C@H](N)C1 (stereo partly shown)", "log10 IC50": 0.55}
{"Compound": "C[C@H]1C[C@@H](NC(=O)c2cc(C3CC3)on2)CCN1C(=O)CC(C)(C)CN", "log10 IC50": -0.02}
{"Compound": "C[C@@H]1C[C@@H](NC(=O)c2cc(C3CC3)on2)CCN1S(=O)(=O)N1CCN(C)CC1", "log10 IC50": 0.25}
{"Compound": "C[C@H]1C[C@@H](NC(=O)c2cc(C3CC3)on2)CCN1S(=O)(=O)c1ccccc1", "log10 IC50": -0.82}

Ask: Requested field: log10 IC50. Item: `CC(C)OCCS(=O)(=O)N1CC[C@@H](NC(=O)c2cc(C3CC3)on2)C[C@H]1C`
Result: 0.78

Ask: Now consider `C[C@@H]1C[C@H](NC(=O)c2cc(C3CC3)on2)CCN1C(=O)CCCCN` .
Result: -0.08

Ask: Now consider C[C@H]1CC(NC(=O)c2cc(C3CC3)on2)CCN1C(=O)C[C@H](O)CCN (stereo partly shown) .
Result: 0.80

Ask: Now consider `C[C@H]1C[C@@H](NC(=O)c2cc(C3CC3)on2)CCN1S(=O)(=O)Cc1ccccc1` .
Result: -0.36

Ask: Now consider `NC[C@H](Cc1ccccc1)C(=O)N1CCC(NC(=O)c2cc(C3CC3)on2)CC1` .
Result: 0.38

Ask: Now consider C[C@@H]1CC(NC(=O)c2cc(C3CC3)on2)CCN1C(=O)C[C@H](O)CCN (stereo partly shown) .
Result: 0.27

Ask: Now consider CN[C@H]1CC[C@H](C(=O)N2CCC(NC(=O)c3cc(C4CC4)on3)C[C@H]2C)CC1 (stereo partly shown) .
Result: -0.56

Ask: Now consider N[C@H]1CC[C@H](C(=O)N2CCC(NC(=O)c3cc(C4CC4)on3)C(F)(F)C2)CC1 (stereo partly shown) .
Result: 0.35

---

molecular target: SMYD3 (Homo sapiens (Human)); assay: SMYD3 biochemical assay (SPA, 3H-SAM methylation of MEKK2 protein substrate); conditions: read-out: SMYD3 Biochem IC50 (μM)*
Measurement Kind: IC50 (µM)
Write it as a number; the unit µM goes unstated.

In the examples that follow, each entry is paired with its recorded IC50.
{"Molecule": "NCCCS(=O)(=O)N1[C@@H]2CC[C@H]1C[C@@H](NC(=O)c1cc(C3CC3)on1)C2", "Measurement Kind": "IC50", "Number": 0.00507}
{"Molecule": "C[C@@H]1C[C@H](NC(=O)c2cc(C3CC3)on2)CCN1C(=O)c1ccc2[nH]cnc2c1", "Measurement Kind": "IC50", "Number": 1}

Now turn to the next molecule.
Ask: Item C[C@H]1CC(NC(=O)c2cc(C3CC3)on2)CCN1C(=O)CC1CC2CCC(C1)N2 (stereo partly shown) with SMYD3 (Homo sapiens (Human)) - IC50?
Result: 0.844

---

The reader will find reported IC50 values listed item by item below.
biological target: SMYD3 (Homo sapiens (Human)); assay: SMYD3 cell assay (Trimethyl-MEKK2 In-Cell Western in 293T/17 cells); format: cell-based; conditions: read-out: SMYD3 Cell IC50*
Write it as a number; the unit nM goes unstated.

In the examples that follow, each entry is paired with its recorded IC50.
{"Compound": "CC1CN(C)CCN1S(=O)(=O)N1[C@@H]2CC[C@H]1C[C@@H](NC(=O)c1cc(C3CC3)on1)C2 (some centres unmarked) [compound 950]", "Number": 390}
{"Compound": "NC1C2CN(S(=O)(=O)N3[C@@H]4CC[C@H]3C[C@@H](NC(=O)c3cc(C5CC5)on3)C4)CC12 (some centres unmarked) [compound 801]", "Number": 27.7}
{"Compound": "O=C(N[C@H]1C[C@H]2CC[C@@H](C1)N2S(=O)(=O)N1CCC(NCCN2CCOCC2)CC1)c1cc(C2CC2)on1 [compound 947]", "Number": 338}
{"Compound": "O=C(N[C@H]1C[C@H]2CC[C@@H](C1)N2S(=O)(=O)[C@H]1CC[C@H](NCc2ccccc2)CC1)c1cc(C2CC2)on1 [compound 776]", "Number": 27.6}

Ask: Requested field: IC50. Item: CCN1C2CCC1CN(S(=O)(=O)N1[C@@H]3CC[C@H]1C[C@@H](NC(=O)c1cc(C4CC4)on1)C3)C2 [compound 822]
Result: 43.7
